Attribution: ChEMBL document CHEMBL1136094

- MEASURED_ON: cAMP-dependent protein kinase (PKA) (Homo sapiens, UniProt P22694+P17612+P22612)
- ASSAY_INFO: Inhibitory activity against Protein kinase A (Histone)
- Type: protein assay
Field: IC50. Provide a value for each of the compounds that follow.
One number for each entry, in µM.

Below are worked cases with known answers.
COc1ccc2c3c4c(c5c(ccc6ccn(C)c65)c3n(CCCO)c2c1)C(=O)NC4=O :: 1.04
Cn1ccc2ccc3c4[nH]c5c(CCN6CCNCC6)cccc5c4c4c(c3c21)C(=O)NC4=O :: 12.9
Cn1ccc2ccc3c4[nH]c5c(CCCNCCO)cccc5c4c4c(c3c21)C(=O)NC4=O :: 8.31

Switching to the query record.
Task: Given `Cn1ccc2ccc3c4[nH]c5c(CCN6CCC[C@H]6CO)cccc5c4c4c(c3c21)C(=O)NC4=O` , state its recorded IC50.
Result: 4.58

====

- MEASURED_ON: TGF-beta receptor type-2 (Homo sapiens, UniProt P37173)
- Sequence (P37173 whole entry): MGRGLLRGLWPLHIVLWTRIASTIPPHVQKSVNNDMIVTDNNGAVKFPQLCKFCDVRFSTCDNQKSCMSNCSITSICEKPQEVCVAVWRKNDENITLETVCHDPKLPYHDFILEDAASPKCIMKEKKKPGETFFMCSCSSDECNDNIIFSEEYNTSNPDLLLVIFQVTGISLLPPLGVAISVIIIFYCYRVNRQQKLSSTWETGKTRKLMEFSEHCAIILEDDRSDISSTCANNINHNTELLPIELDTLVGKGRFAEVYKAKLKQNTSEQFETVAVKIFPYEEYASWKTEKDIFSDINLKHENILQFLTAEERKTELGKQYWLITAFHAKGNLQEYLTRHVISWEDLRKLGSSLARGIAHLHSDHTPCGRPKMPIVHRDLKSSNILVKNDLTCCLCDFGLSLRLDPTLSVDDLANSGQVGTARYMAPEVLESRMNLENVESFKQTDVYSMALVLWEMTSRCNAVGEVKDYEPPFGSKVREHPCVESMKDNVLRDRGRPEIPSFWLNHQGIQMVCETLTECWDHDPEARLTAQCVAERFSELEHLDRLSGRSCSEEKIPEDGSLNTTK
VALUE_TYPE: IC50

Task: Record request: IC50 value, item `Cn1ccc2ccc3c4[nH]c5c(CCCN[C@H]6CC[C@H](O)CC6)cccc5c4c4c(c3c21)C(=O)NC4=O`
Result: > 20 µM

====

Kindly state inhibition for each of the entries shown.
- MEASURED_ON: Cyclin-dependent kinase 4 (Homo sapiens) (UniProt P11802)
- Sequence (P11802 whole entry): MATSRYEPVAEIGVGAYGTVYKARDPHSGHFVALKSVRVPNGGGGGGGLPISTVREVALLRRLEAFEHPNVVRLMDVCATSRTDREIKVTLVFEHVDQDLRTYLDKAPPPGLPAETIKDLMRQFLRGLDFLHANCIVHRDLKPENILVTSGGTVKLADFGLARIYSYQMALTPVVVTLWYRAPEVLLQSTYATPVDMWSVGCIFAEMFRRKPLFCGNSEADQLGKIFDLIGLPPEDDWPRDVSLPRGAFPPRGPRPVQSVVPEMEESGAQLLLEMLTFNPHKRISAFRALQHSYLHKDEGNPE
- ASSAY_INFO: Inhibition of Rb phosphorylation at the CDK4 specific Ser780 residue (3 fold increase over control) after 24 hr incubation in HCT116 cells
- Type: functional, cell-based
- MEASUREMENT_PARAMETERS: HCT-116, concentration not given here
Numbers only, in %.

Cn1ccc2ccc3c4[nH]c5c(CCN6CCC(C(N)=O)CC6)cccc5c4c4c(c3c21)C(=O)NC4=O :: 55

Working through the 3 compounds below one at a time, give inhibition for each.
1. Cn1ccc2ccc3c4[nH]c5c(CCN6CCC[C@H]6CO)cccc5c4c4c(c3c21)C(=O)NC4=O
2. Cn1ccc2ccc3c4[nH]c5c(CCN6CCC(O)CC6)cccc5c4c4c(c3c21)C(=O)NC4=O
3. Cn1ccc2ccc3c4[nH]c5c(CCN[C@H]6CC[C@H](O)CC6)cccc5c4c4c(c3c21)C(=O)NC4=O

Result:
73
69
87

====

- MEASURED_ON: UniProt P11802
- ASSAY_INFO: Inhibition of Rb phosphorylation at the CDK4 specific Ser780 residue (3 fold increase over control) after 24 hr incubation in HCT116 cells
- Type: functional, cell-based
- MEASUREMENT_PARAMETERS: HCT-116, concentration not given here
VALUE_TYPE: inhibition (%)
Answers are plain numbers, in %.

Guide cases for inhibition, answers given:
Cn1ccc2ccc3c4[nH]c5c(CCCN[C@H]6CC[C@H](O)CC6)cccc5c4c4c(c3c21)C(=O)NC4=O :: 83
COc1ccc2c3c4c(c5c(ccc6ccn(C)c65)c3n(CCNCCO)c2c1)C(=O)NC4=O :: 92
COc1ccc2c3c4c(c5c(ccc6ccn(C)c65)c3n(CCCNCCO)c2c1)C(=O)NC4=O :: 78

# batch size: 5; output inhibition per entry
1. COc1cc2c3[nH]c4ccccc4c3c3c(c2c2c1ccn2C)C(=O)NC3=O
2. Cn1ccc2ccc3c4[nH]c5c(CCN6CCCCC6)cccc5c4c4c(c3c21)C(=O)NC4=O
3. Cn1ccc2ccc3c4[nH]c5cc(O)ccc5c4c4c(c3c21)C(=O)NC4=O
4. COc1ccc2c3c4c(c5c(ccc6ccn(C)c65)c3n(CCCN3CCC(C(N)=O)CC3)c2c1)C(=O)NC4=O
5. COc1cc2ccn(C)c2c2c3c(c4c5ccccc5[nH]c4c12)C(=O)NC3=O

Result:
[86, 78, 95, 67, 77]

====

- MEASURED_ON: RAC-alpha serine/threonine-protein kinase (Homo sapiens, UniProt P31749)
- Sequence (P31749 whole entry): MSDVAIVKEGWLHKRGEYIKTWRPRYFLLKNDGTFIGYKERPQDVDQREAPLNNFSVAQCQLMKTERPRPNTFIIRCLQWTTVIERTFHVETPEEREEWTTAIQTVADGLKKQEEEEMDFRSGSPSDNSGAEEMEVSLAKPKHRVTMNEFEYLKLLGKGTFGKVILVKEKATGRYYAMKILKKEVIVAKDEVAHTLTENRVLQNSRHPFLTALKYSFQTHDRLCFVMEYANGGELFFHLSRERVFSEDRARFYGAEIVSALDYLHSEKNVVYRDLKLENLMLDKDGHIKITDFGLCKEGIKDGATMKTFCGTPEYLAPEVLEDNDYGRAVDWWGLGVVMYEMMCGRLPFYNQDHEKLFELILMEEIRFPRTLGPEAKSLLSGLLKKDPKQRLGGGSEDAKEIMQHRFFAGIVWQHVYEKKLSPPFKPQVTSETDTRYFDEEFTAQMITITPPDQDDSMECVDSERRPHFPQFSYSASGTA
VALUE_TYPE: pIC50
One number for each entry, as −log10 of the molar value.

Task: Requested read-out: pIC50. Entry: `Cn1ccc2ccc3c4[nH]c5c(CCCN[C@H]6CC[C@H](O)CC6)cccc5c4c4c(c3c21)C(=O)NC4=O`
Result: 5.26

====

- System: HCT-116
- ASSAY_INFO: In vitro antiproliferative activity against human carcinoma cell line HCT116 (colon)
- Assay type: functional, cell-based
pIC50: −log10 of the molar value.
Kind request: treat 6 as inclusive, so pIC50 at 6 or higher is met, anything lower is not met.

Here are 3 molecules together with their reported answers.
O=C1NC(=O)c2c1c1c(ccc3cc[nH]c31)c1[nH]c3cc(O)ccc3c21 :: met
Cn1ccc2ccc3c4[nH]c5c(CCN6CCCCC6)cccc5c4c4c(c3c21)C(=O)NC4=O :: not met
Cc1cc2ccn(C)c2c2c3c(c4c5ccccc5[nH]c4c12)C(=O)NC3=O :: not met

Task: API: above_or_equal(metric=pIC50, cutoff=6) for item `Cn1ccc2ccc3c4[nH]c5c(CCN6CCC(O)CC6)cccc5c4c4c(c3c21)C(=O)NC4=O`
Result: met

Task: And what about the molecule `Cn1ccc2ccc3c4[nH]c5ccc(C(F)(F)F)cc5c4c4c(c3c21)C(=O)NC4=O` ?
Result: not met

Task: Now the molecule `Cc1ccc2c(c1)[nH]c1c3ccc4ccn(C)c4c3c3c(c21)C(=O)NC3=O`
Result: not met

Task: Same lookup for `COC(=O)C1CCN(CCc2cccc3c2[nH]c2c4ccc5ccn(C)c5c4c4c(c32)C(=O)NC4=O)CC1` , please.
Result: not met

Task: # iterate: `COc1ccc2c3c4c(c5c(ccc6ccn(C)c65)c3n(CCN3CCCCC3)c2c1)C(=O)NC4=O`
Result: not met

Task: Now the molecule `Cn1ccc2ccc3c4[nH]c5c(CCN6CCSCC6)cccc5c4c4c(c3c21)C(=O)NC4=O`
Result: not met

Task: Same question, `Cn1ccc2ccc3c4[nH]c5cc(C(F)(F)F)ccc5c4c4c(c3c21)C(=O)NC4=O` this time
Result: not met

Task: Then `Cn1ccc2ccc3c4[nH]c5c(CCCN6CCOCC6)cccc5c4c4c(c3c21)C(=O)NC4=O` ?
Result: not met

Task: Try the molecule `Cc1cc2ccn(C)c2c2c3c(c4c5ccccc5n(C)c4c12)C(=O)NC3=O`
Result: not met

Task: Also, `COc1ccc2c3c4c(c5c(ccc6ccn(C)c65)c3n(CCCN3CCSCC3)c2c1)C(=O)NC4=O` please.
Result: not met

====

For each entry below, report its IC50 value.
- Test system: HCT-116
- ASSAY_INFO: In vitro antiproliferative activity against human carcinoma cell line HCT116 (colon)
- Format: functional, cell-based
Answers are plain numbers, in µM.

Sample answers from the record:
Cn1ccc2ccc3c4[nH]c5c(CCN[C@H]6CC[C@H](O)CC6)cccc5c4c4c(c3c21)C(=O)NC4=O :: 1.23
CCN(CC)CCCc1cccc2c1[nH]c1c3ccc4ccn(C)c4c3c3c(c21)C(=O)NC3=O :: 0.95
CCOc1ccc2c(c1)[nH]c1c3ccc4ccn(C)c4c3c3c(c21)C(=O)NC3=O :: 2.35

Task: Which IC50 value is on record for `CCc1ccc2c(c1)[nH]c1c3ccc4ccn(C)c4c3c3c(c21)C(=O)NC3=O` ?
Result: 3.51

====

- MEASURED_ON: CaM kinase II (Homo sapiens, UniProt Q13557+Q13555+Q13554+Q9UQM7)
- ASSAY_INFO: Inhibitory activity against Calcium/calmodulin-dependent protein kinase type II
- Assay type: protein assay
VALUE_TYPE: IC50 (µM)
Numbers only, in µM.

Example cases with answers are listed next.
Cn1ccc2ccc3c4[nH]c5c(CCN[C@H]6CC[C@H](O)CC6)cccc5c4c4c(c3c21)C(=O)NC4=O :: 0.049
Cn1ccc2ccc3c4[nH]c5c(CCCNCCO)cccc5c4c4c(c3c21)C(=O)NC4=O :: 0.266

Now look at this one.
Task: Given the entry `Cn1ccc2ccc3c4[nH]c5c(CCCN6CCOCC6)cccc5c4c4c(c3c21)C(=O)NC4=O` , report its measured IC50.
Result: 0.516

====

- MEASURED_ON: cAMP-dependent protein kinase (PKA) (Homo sapiens, UniProt P22694+P17612+P22612)
- ASSAY_INFO: Inhibitory activity against Protein kinase A (Histone)
- Format: protein assay
VALUE_TYPE: IC50

COc1ccc2c3c4c(c5c(ccc6ccn(C)c65)c3n(CCN3CCCCC3)c2c1)C(=O)NC4=O :: > 20 µM
Cn1ccc2ccc3c4[nH]c5cc(F)ccc5c4c4c(c3c21)C(=O)NC4=O :: > 20 µM

Task: Fill in: IC50 of `Cn1ccc2ccc3c4[nH]c5c(CCO)cccc5c4c4c(c3c21)C(=O)NC4=O` is ___
Result: > 2 µM

====

- MEASURED_ON: CaM kinase II (Homo sapiens, UniProt Q13557+Q13555+Q13554+Q9UQM7)
- ASSAY_INFO: Inhibitory activity against Calcium/calmodulin-dependent protein kinase type II
- Type: protein assay
Label label 1 when IC50 is strictly below 0.3 µM; at or above that, label label 0.

Consider the worked cases shown below.
COC(=O)C1CCN(CCc2cccc3c2[nH]c2c4ccc5ccn(C)c5c4c4c(c32)C(=O)NC4=O)CC1 :: label 1
Cn1ccc2ccc3c4[nH]c5c(CCN6CCC(C(N)=O)CC6)cccc5c4c4c(c3c21)C(=O)NC4=O :: label 1
COc1ccc2c3c4c(c5c(ccc6ccn(C)c65)c3n(CCN3CCC[C@H]3CO)c2c1)C(=O)NC4=O :: label 0
COc1ccc2c3c4c(c5c(ccc6ccn(C)c65)c3n(CCCN3CCN(C)CC3)c2c1)C(=O)NC4=O :: label 0

Task: Does the reported IC50 of `COc1ccc2c3c4c(c5c(ccc6ccn(C)c65)c3n(CCCNCCO)c2c1)C(=O)NC4=O` stay below 0.3 µM?
Result: label 0
